- Tested on: Escherichia coli TOP10;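 note: peptides expressed intracellularly from a pBAD plasmid library in pooled LB shake-flask culture, induced with 0.3% L-arabinose, DNA abundance read by NGS, three biological replicates, DESeq2 with apeglm shrinkage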
- protocol: shrunken log2 fold change of peptide-encoding DNA abundance (4.5 h post-induction vs induction); higher = less antimicrobial activity (less host growth inhibition)
- reported.conditions: time post-induction: 4.5 h; library: site-saturation at positions 5, 18, 19, 20
Lab note: anything with shrunken log2 fold change at or over -0.05 counts as criterion met; the rest go in criterion not met.

Determine whether this sequence has shrunken log2 fold change no lower than -0.05: RRIRIRPPRLPRPRPRPHNKPRP
criterion not met

Determine whether this sequence has shrunken log2 fold change no lower than -0.05: RRIRNRPPRLPRPRPRPLNFPRP
criterion not met

Determine whether this sequence has shrunken log2 fold change no lower than -0.05: RRIRERPPRLPRPRPRPLPKPRP
criterion met

Determine whether this sequence has shrunken log2 fold change no lower than -0.05: RRIRARPPRLPRPRPRPKVYPRP
criterion met

Determine whether this sequence has shrunken log2 fold change no lower than -0.05: RRIRMRPPRLPRPRPRPPKYPRP
criterion not met

Determine whether this sequence has shrunken log2 fold change no lower than -0.05: RRIRNRPPRLPRPRPRPGWCPRP
criterion met

Determine whether this sequence has shrunken log2 fold change no lower than -0.05: RRIRARPPRLPRPRPRPAINPRP
criterion met

Determine whether this sequence has shrunken log2 fold change no lower than -0.05: RRIRNRPPRLPRPRPRPNPWPRP
criterion met

Determine whether this sequence has shrunken log2 fold change no lower than -0.05: RRIRIRPPRLPRPRPRPEIHPRP
criterion met

Determine whether this sequence has shrunken log2 fold change no lower than -0.05: RRIRMRPPRLPRPRPRPMSDPRP
criterion not met

Determine whether this sequence has shrunken log2 fold change no lower than -0.05: RRIRERPPRLPRPRPRPASPPRP
criterion not met

Determine whether this sequence has shrunken log2 fold change no lower than -0.05: RRIRVRPPRLPRPRPRPWRKPRP
criterion met

Determine whether this sequence has shrunken log2 fold change no lower than -0.05: RRIRARPPRLPRPRPRPYRMPRP
criterion met

Determine whether this sequence has shrunken log2 fold change no lower than -0.05: RRIRRRPPRLPRPRPRPEQNPRP
criterion met

Determine whether this sequence has shrunken log2 fold change no lower than -0.05: RRIRLRPPRLPRPRPRPPLSPRP
criterion met

Determine whether this sequence has shrunken log2 fold change no lower than -0.05: RRIRLRPPRLPRPRPRPDQCPRP
criterion not met

Determine whether this sequence has shrunken log2 fold change no lower than -0.05: RRIRTRPPRLPRPRPRPNQEPRP
criterion met

Determine whether this sequence has shrunken log2 fold change no lower than -0.05: RRIRNRPPRLPRPRPRPCMCPRP
criterion met

Determine whether this sequence has shrunken log2 fold change no lower than -0.05: RRIRNRPPRLPRPRPRPNHFPRP
criterion met

Determine whether this sequence has shrunken log2 fold change no lower than -0.05: RRIRVRPPRLPRPRPRPYNLPRP
criterion not met

Determine whether this sequence has shrunken log2 fold change no lower than -0.05: RRIRMRPPRLPRPRPRPSVHPRP
criterion not met

Determine whether this sequence has shrunken log2 fold change no lower than -0.05: RRIRGRPPRLPRPRPRPKVGPRP
criterion met

Determine whether this sequence has shrunken log2 fold change no lower than -0.05: RRIRDRPPRLPRPRPRPDNDPRP
criterion met

Determine whether this sequence has shrunken log2 fold change no lower than -0.05: RRIRIRPPRLPRPRPRPDNLPRP
criterion met

Determine whether this sequence has shrunken log2 fold change no lower than -0.05: RRIRTRPPRLPRPRPRPIRMPRP
criterion not met

Determine whether this sequence has shrunken log2 fold change no lower than -0.05: RRIRIRPPRLPRPRPRPGYKPRP
criterion not met

Determine whether this sequence has shrunken log2 fold change no lower than -0.05: RRIRGRPPRLPRPRPRPNYPPRP
criterion met

Determine whether this sequence has shrunken log2 fold change no lower than -0.05: RRIRHRPPRLPRPRPRPGVWPRP
criterion met

Determine whether this sequence has shrunken log2 fold change no lower than -0.05: RRIRGRPPRLPRPRPRPDNQPRP
criterion met

Determine whether this sequence has shrunken log2 fold change no lower than -0.05: RRIRTRPPRLPRPRPRPAFAPRP
criterion met

Determine whether this sequence has shrunken log2 fold change no lower than -0.05: RRIRGRPPRLPRPRPRPMALPRP
criterion met

Determine whether this sequence has shrunken log2 fold change no lower than -0.05: RRIRNRPPRLPRPRPRPFDNPRP
criterion not met
